TEST METHOD NOTES: Trypanosoma cruzi growth suppression in host cells – NIH3T3 host cells, beta-gal luminescence, confirmation (AID 2044);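 note: intracellular parasites grown in NIH/3T3 mouse fibroblasts as host cells; luminescent beta-galactosidase reporter signal from transgenic T. cruzi replicating inside host cells; inhibitors lower the luminescence signal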
Type: functional, cell-based
Active and inactive are the calls of the source. Cut-off read from the data, not from the text of the source: actives have a measured EC50 and inactives only a lower limit.
OBSERVED PROPERTY: EC50

Query: Returns the measured EC50 for the input compound. Input: Nc1nc(Cl)cc(N2CCC(c3cc(-c4ccc(Cl)cc4)[nH]n3)CC2)n1
Reply: 2.13 µM (active)

Query: Now the same for COc1ccc(CCN(C)CCC(=O)Nc2ccc(C)cc2)cc1OC
Reply: 0.227 µM (active)

Query: Now the same for CCOC(=O)c1c(NC(=O)C[n+]2ccc(Cc3ccccc3)cc2)sc(C)c1C
Reply: 1.83 µM (active)

Query: Now the same for Nc1c(C(=O)NCCCc2ccccc2)c2nc3ccccc3nc2n1Cc1cccs1
Reply: 2.17 µM (active)

Query: Now the same for O=C(CC(Sc1ccc(Br)cc1)C(=O)O)c1ccc(F)cc1 (stereo not drawn)
Reply: 2.1 µM (active)

Query: Now the same for Nc1ccc(Cl)c(S(=O)(=O)Nc2ccc(Cl)cc2)c1
Reply: 39.7 µM (active)

Query: Now the same for COc1cc2ccccc2cc1C(=O)NNC(=O)c1ccccc1O
Reply: > 60 µM (not active)

Query: Now the same for CCCNC(=O)Cn1sc2nc(C)cc(C)c2c1=O
Reply: 3.08 µM (active)

Query: Now the same for Cc1cccc2cc(CN(Cc3cccs3)Cc3nnnn3Cc3ccccc3)c(O)nc12
Reply: 2.68 µM (active)

Query: Now the same for O=C(/C=C/c1ccco1)Nc1nc(-c2ccccn2)cs1
Reply: 4.02 µM (active)

Query: Now the same for CCn1c(SCC(=O)c2ccccc2)nc2sc3c(c2c1=O)CCN(C)C3
Reply: < 0.1 µM (active)

Query: Now the same for O=C(CSc1oc(-c2cccs2)nc1S(=O)(=O)c1ccccc1)NC1CCCCC1
Reply: 1.13 µM (active)

Query: Now the same for COc1ccc(C(=O)c2c(C(F)(F)F)oc3c2C(=O)c2ccccc2C3=O)cc1OC
Reply: 0.884 µM (active)
